System: CCRF-CEM
TEST_METHOD_NOTES: Growth inhibition of human CCRF-CEM cells after 48 hrs by cell culture assay in presence of 1 x 10^-4 M L-cysteine
Format: functional
MEASUREMENT_SETUP: read-out: ID50 (the source's name)
pIC50: −log10 of the molar value.
MEASUREMENT_TYPE: pIC50

COMPOUND	pIC50
C=C[C@]12CC[C@H]3C(=C)C(=O)O[C@@H]3[C@H]1C(=C)C(=O)OC2	7.47

P. C=C[C@@]12COC(=O)C(=C)[C@@H]1[C@H]1OC(=O)C(=C)[C@@H]1[C@@H](O)C2 [VERNOLEPIN]
Q. C=C1C(=O)OC[C@@]2(CC)CC[C@H]3C(=C)C(=O)O[C@@H]3[C@@H]12
[in] Pick one, P or Q : lowest reported pIC50. Your choice should be expressed through its label.
[out] P
